System: intracellular AOSs, fibroblast line L929
EXPERIMENT_NOTES: in vitro assay of intracellular AOSs (H2DCF-DA probe) after H2O2/iron oxidative stress
Type: cell-based, murin
MEASUREMENT_CONDITIONS: 0.2 ng/ml, pre-incubation 3 h, L929
Could you label it yes (1) if measured Percentage inhibition of the intracellular production of AOS is 10% or higher, and no (0) otherwise?

Input: Answer whether Percentage inhibition of the intracellular production of AOS of O=C(O)C(F)=CCCCCO (mixture of isomers) is greater than or equal to 10%.
Output: no (0)

Input: Answer whether Percentage inhibition of the intracellular production of AOS of O=C(O)/C=C/CCCCCCO [n=5, R=H, Rn=H, R1=H, 9-hydroxy-nona-2t-enoic acid] is greater than or equal to 10%.
Output: yes (1)

Input: Answer whether Percentage inhibition of the intracellular production of AOS of O=C(O)/C=C/CCCCCCCCCCCO [n=10, R=H, Rn=H, R1=H, 14-hydroxy-tetradec-2t-enoic acid] is greater than or equal to 10%.
Output: no (0)

Input: Answer whether Percentage inhibition of the intracellular production of AOS of O=C(O)/C=C/CCCCCCCCCCCCCCO [n=13, R=H, Rn=H, R1=H, 17-hydroxy-heptadec-2t-enoic acid] is greater than or equal to 10%.
Output: yes (1)

Input: Answer whether Percentage inhibition of the intracellular production of AOS of O=C(O)C(F)=CCCCCCO (mixture of isomers) is greater than or equal to 10%.
Output: no (0)

Input: Answer whether Percentage inhibition of the intracellular production of AOS of O=C(O)C=CCCCCCO is greater than or equal to 10%.
Output: no (0)

Input: Answer whether Percentage inhibition of the intracellular production of AOS of O=C(O)C(F)=CCCCCCCCCCCCCCCO is greater than or equal to 10%.
Output: yes (1)

Input: Answer whether Percentage inhibition of the intracellular production of AOS of O=C(O)C=CCCCCO is greater than or equal to 10%.
Output: yes (1)

Input: Answer whether Percentage inhibition of the intracellular production of AOS of O=C(O)C(F)=CCCCCCCCCCCCO is greater than or equal to 10%.
Output: yes (1)

Input: Answer whether Percentage inhibition of the intracellular production of AOS of O=C(O)C(F)=CCCCCCCCCCCCCCCCO (mixture of isomers) is greater than or equal to 10%.
Output: no (0)

====

Test system: desaturase DES2
EXPERIMENT_NOTES: keratinocyte differentiation, real-time RT-PCR of DES2 transcripts
Type: cell-based, human
MEASUREMENT_CONDITIONS: 100 μg/ml, NHK, 48 hours
So I've got a bunch of molecules here, and I need their Induction Factor vs Control (CaCl2 1.2 mM) DES2 values.
Could you keep your reply to the number by itself?

Input: Write down Induction Factor vs Control (CaCl2 1.2 mM) DES2 measured for item O=C(O)/C=C/CCCCCCCCCCCO [n=10, R=H, Rn=H, R1=H, 14-hydroxy-tetradec-2t-enoic acid]
Output: 125.8

Input: Write down Induction Factor vs Control (CaCl2 1.2 mM) DES2 measured for item O=C(O)C=CCCCCO
Output: 2.4

Input: Write down Induction Factor vs Control (CaCl2 1.2 mM) DES2 measured for item O=C(O)C=CCCCCCO
Output: 2.2

Input: Write down Induction Factor vs Control (CaCl2 1.2 mM) DES2 measured for item O=C(O)C(F)=CCCCCCCCCCCCO
Output: 16.0

Input: Write down Induction Factor vs Control (CaCl2 1.2 mM) DES2 measured for item O=C(O)C(F)=CCCCCCCCO [n=6, R=H, Rn=H, R1=F, 10-hydroxy-dec-2-fluoro-2 enoic acid]
Output: 10.3

Input: Write down Induction Factor vs Control (CaCl2 1.2 mM) DES2 measured for item O=C(O)C(F)=CCCCCO (mixture of isomers)
Output: 1.9

Input: Write down Induction Factor vs Control (CaCl2 1.2 mM) DES2 measured for item O=C(O)/C=C/CCCCCCCCCCO [n=9, R=H, Rn=H, R1=H, 13-hydroxy-tridec-2t-enoic acid]
Output: 51.7

Input: Write down Induction Factor vs Control (CaCl2 1.2 mM) DES2 measured for item O=C(O)C(F)=CCCCCCO (mixture of isomers)
Output: 3.2

Input: Write down Induction Factor vs Control (CaCl2 1.2 mM) DES2 measured for item O=C(O)/C=C/CCCCCCCO
Output: 11.5

====

So I've got a bunch of compounds here, and I need their Induction Factor vs Control (CaCl2 1.2 mM) FATP4 values.
System: FATP4
EXPERIMENT_NOTES: keratinocyte differentiation, real-time RT-PCR of FATP4 transcripts
Type: cell-based, human
MEASUREMENT_CONDITIONS: 100 μg/ml, NHK, 48 hours
Excerpt: Normal human keratinocytes (NHK) proliferate and differentiate in vitro, forming stratified layers which mimic the basal organisation of the skin. […] Keratinocyte differentiation can then be evaluated by studying the expression of several markers such as keratins 1 and 10, transglutaminase 1, desaturase DES2, involucrine, FATP4 and ABCG1 transporters. We therefore evaluated the effect of certain hydroxyalcene carboxylic acids in an in vitro culture model. […]
Could you keep your reply to the number by itself?

Input: Write down Induction Factor vs Control (CaCl2 1.2 mM) FATP4 measured for item O=C(O)/C=C/CCCCCCCCCCO [n=9, R=H, Rn=H, R1=H, 13-hydroxy-tridec-2t-enoic acid]
Output: 4.5

Input: Write down Induction Factor vs Control (CaCl2 1.2 mM) FATP4 measured for item O=C(O)C(F)=CCCCCCCCCCCCO
Output: 2.3

Input: Write down Induction Factor vs Control (CaCl2 1.2 mM) FATP4 measured for item O=C(O)/C=C/CCCCCCCCCCCO [n=10, R=H, Rn=H, R1=H, 14-hydroxy-tetradec-2t-enoic acid]
Output: 5.9

Input: Write down Induction Factor vs Control (CaCl2 1.2 mM) FATP4 measured for item O=C(O)C=CCCCCCO
Output: 1.4

Input: Write down Induction Factor vs Control (CaCl2 1.2 mM) FATP4 measured for item O=C(O)C(F)=CCCCCCCCO [n=6, R=H, Rn=H, R1=F, 10-hydroxy-dec-2-fluoro-2 enoic acid]
Output: 1.9

Input: Write down Induction Factor vs Control (CaCl2 1.2 mM) FATP4 measured for item O=C(O)C(F)=CCCCCCO (mixture of isomers)
Output: 1.4

Input: Write down Induction Factor vs Control (CaCl2 1.2 mM) FATP4 measured for item O=C(O)/C=C/CCCCCCCO
Output: 2.5

Input: Write down Induction Factor vs Control (CaCl2 1.2 mM) FATP4 measured for item O=C(O)C(F)=CCCCCO (mixture of isomers)
Output: 1.2

Input: Write down Induction Factor vs Control (CaCl2 1.2 mM) FATP4 measured for item O=C(O)C=CCCCCO
Output: 1.2

====

So I've got a bunch of compounds here, and I need their Induction Factor vs Control (CaCl2 1.2 mM) TG1 values.
Test system: transglutaminase 1 (TG1)
EXPERIMENT_NOTES: keratinocyte differentiation, real-time RT-PCR of transglutaminase 1 transcripts
Type: cell-based, human
MEASUREMENT_CONDITIONS: 1 μg/ml, NHK, 48 hours
Could you keep your reply to the number by itself?

Input: Write down Induction Factor vs Control (CaCl2 1.2 mM) TG1 measured for item O=C(O)C(F)=CCCCCCCCCCCCO
Output: 1.4

Input: Write down Induction Factor vs Control (CaCl2 1.2 mM) TG1 measured for item O=C(O)/C=C/CCCCCCCCCCCO [n=10, R=H, Rn=H, R1=H, 14-hydroxy-tetradec-2t-enoic acid]
Output: 1.5

Input: Write down Induction Factor vs Control (CaCl2 1.2 mM) TG1 measured for item O=C(O)C(F)=CCCCCCO (mixture of isomers)
Output: 1.6

Input: Write down Induction Factor vs Control (CaCl2 1.2 mM) TG1 measured for item O=C(O)/C=C/CCCCCCO [n=5, R=H, Rn=H, R1=H, 9-hydroxy-nona-2t-enoic acid]
Output: 1.5

Input: Write down Induction Factor vs Control (CaCl2 1.2 mM) TG1 measured for item O=C(O)C=CCCCCO
Output: 1.2

====

Tested on: FATP4
EXPERIMENT_NOTES: keratinocyte differentiation, real-time RT-PCR of FATP4 transcripts
Format: cell-based, human
MEASUREMENT_CONDITIONS: 1 μg/ml, NHK, 48 hours
So I've got a bunch of compounds here, and I need their Induction Factor vs Control (CaCl2 1.2 mM) FATP4 values.

Input: Write down Induction Factor vs Control (CaCl2 1.2 mM) FATP4 measured for item O=C(O)/C=C/CCCCCCCCCCO [n=9, R=H, Rn=H, R1=H, 13-hydroxy-tridec-2t-enoic acid]
Output: 1.2

Input: Write down Induction Factor vs Control (CaCl2 1.2 mM) FATP4 measured for item O=C(O)/C=C/CCCCCCCCCCCO [n=10, R=H, Rn=H, R1=H, 14-hydroxy-tetradec-2t-enoic acid]
Output: 1.2

Input: Write down Induction Factor vs Control (CaCl2 1.2 mM) FATP4 measured for item O=C(O)C(F)=CCCCCCCCO [n=6, R=H, Rn=H, R1=F, 10-hydroxy-dec-2-fluoro-2 enoic acid]
Output: 1.0

Input: Write down Induction Factor vs Control (CaCl2 1.2 mM) FATP4 measured for item O=C(O)/C=C/CCCCCCCO
Output: 1.2

Input: Write down Induction Factor vs Control (CaCl2 1.2 mM) FATP4 measured for item O=C(O)C=CCCCCCO
Output: 1.0

Input: Write down Induction Factor vs Control (CaCl2 1.2 mM) FATP4 measured for item O=C(O)C(F)=CCCCCCCCCCCCCCCO
Output: 2.2

Input: Write down Induction Factor vs Control (CaCl2 1.2 mM) FATP4 measured for item O=C(O)/C=C/CCCCCCCCCCCCCCO [n=13, R=H, Rn=H, R1=H, 17-hydroxy-heptadec-2t-enoic acid]
Output: 1.4

Input: Write down Induction Factor vs Control (CaCl2 1.2 mM) FATP4 measured for item O=C(O)C(F)=CCCCCCO (mixture of isomers)
Output: 1.3

Input: Write down Induction Factor vs Control (CaCl2 1.2 mM) FATP4 measured for item O=C(O)C(F)=CCCCCCCCCCCCO
Output: 1.0

Input: Write down Induction Factor vs Control (CaCl2 1.2 mM) FATP4 measured for item O=C(O)/C=C/CCCCCCO [n=5, R=H, Rn=H, R1=H, 9-hydroxy-nona-2t-enoic acid]
Output: 1.0

Input: Write down Induction Factor vs Control (CaCl2 1.2 mM) FATP4 measured for item O=C(O)C(F)=CCCCCCCCCCCCCCCCO (mixture of isomers)
Output: 1.0

Input: Write down Induction Factor vs Control (CaCl2 1.2 mM) FATP4 measured for item O=C(O)C(F)=CCCCCO (mixture of isomers)
Output: 1.2

Input: Write down Induction Factor vs Control (CaCl2 1.2 mM) FATP4 measured for item O=C(O)C=CCCCCO
Output: 1.4
